System: SW-620
experimental_details: NCI tumour cell line growth inhibition, 48 h
Active and inactive are the calls of the source. No stated cut-off is given here; in the data, active = GI50 up to about 1.1 µM and inactive = higher.
Possible outcomes: class 1 = active, class 0 = inactive

{"compound": "CC(C)C(/C=C/c1ccc(Cl)cc1)=N\\NC(=S)NN", "target_of_assay": "SW-620", "assigned_category": "class 0"}
{"compound": "O=C1c2cc(Cc3ccccc3)c(=O)c(Cc3ccccc3)cc2C(=O)c2cc(Cc3ccccc3)c(=O)c(Cc3ccccc3)cc21", "target_of_assay": "SW-620", "assigned_category": "class 0"}
{"compound": "COc1cc(/C=C/c2csnn2)cc(OC)c1OC", "target_of_assay": "SW-620", "assigned_category": "class 0"}
{"compound": "CC(C)[C@@H](C)[C@@]1(C)C[C@@H]1[C@@H](C)[C@H]1CC[C@@H]([C@@H]2CC=C3C[C@@H](O)CC[C@]3(C)C2=O)[C@]1(C)CCO", "target_of_assay": "SW-620", "assigned_category": "class 0"}
{"compound": "COc1cc(C(C[N+](=O)[O-])SC(C)=O)ccc1OCc1ccccc1 (centres undefined)", "target_of_assay": "SW-620", "assigned_category": "class 0"}
{"compound": "COc1cc2c(c(O)c1OC)C(O)C1CCC(=O)N1C2c1ccc2c(c1)OCO2 (centres undefined)", "target_of_assay": "SW-620", "assigned_category": "class 0"}
{"compound": "Cc1c2cc[n+](COC(=O)c3ccccc3)cc2c(C)c2c1[nH]c1ccccc12", "target_of_assay": "SW-620", "assigned_category": "class 1"}
{"compound": "c1ccc(C2=NOC3C4CCC(C4)C23)cc1 (centres undefined)", "target_of_assay": "SW-620", "assigned_category": "class 0"}
{"compound": "CC(C)(C)C(=O)C(C(=O)C(C)(C)C)C(=O)C(C)(C)C", "target_of_assay": "SW-620", "assigned_category": "class 0"}
